Test system: SN12C
Experiment: NCI tumour cell line growth inhibition, 48 h
Active and inactive are the calls of the source. Rule as the data show it: active = GI50 up to about 1.1 µM and inactive = higher.
Below is a list of entries, each paired with its recorded GI50 value.
measured_quantity: GI50

1) COc1ccccc1-n1c(=O)n(C)c(=O)n1C(C)(C)C : > 100 µM (inactive)
2) c1cc2nnc1SCCCSc1ccc(nn1)SCCCS2 : > 35.8 µM (inactive)
3) O=[N+]([O-])c1cc([N+](=O)[O-])c(C(Cl)C(Cl)c2ccccc2)cc1C(Cl)C(Cl)c1ccccc1 (stereo not drawn) : 1.75 µM (inactive)

----------
Test system: KM12
Test: NCI tumour cell line growth inhibition, 48 h
The source made the active and inactive calls. Rule as the data show it: active = GI50 up to about 1.1 µM and inactive = higher.
Classes used: T for active, F for inactive

1. O=C(O)c1cc2ccccc2oc1=O : F
2. CSC1=NC(C(N)=O)C(N)N1C (configuration not stated) : F
3. COc1cc(C[C@H]2c3cc(OC)c(OC)cc3CCN2C)c(Oc2cc3c(cc2OC)-c2c(OC)c(OC)cc4c2[C@H](C3)N(C)CC4)cc1OC : F
4. CC(c1ccc2c(c1)CCC1C2CC2OC23CC=CC(=O)[C@]13C)C1C[C@]2(C)O[C@]2(C)[C@H](O)O1 (some centres not stated) : F
5. CS(=O)(=O)c1ccc(-c2cc(-c3ccc(S(C)(=O)=O)cc3)[n+](-c3cc(-c4ccccc4)c([O-])c(-c4ccccc4)c3)c(-c3ccc(S(C)(=O)=O)cc3)c2)cc1 : F
6. O=NN(CCCl)C(=O)N[C@H]1CC[C@H](C(=O)O)CC1 : F
7. CC(C(N)=O)N(C)C(=O)c1cc2ccccc2[n+](Cc2ccccc2)c1 (configuration not stated) : F
8. Cc1ccc2c(c1)C(=O)c1nc(C)ccc1C2=O : F
9. CSc1nc2c(N)ncnc2n1C : F
10. CN1CCN(C(=S)N2CCN(C)CC2)CC1 : F
11. CC(=O)Nc1ccc(/C=C/C(=O)c2sc(-c3nc(C)c(C(=O)/C=C/c4ccc(NC(C)=O)cc4)s3)nc2C)cc1 : F
12. Cc1ccccc1NC(=O)C(=O)CC(=O)c1sc(Nc2ccccc2[N+](=O)[O-])nc1C : F
13. CN1C(=O)C(=O)N2c3ccc(Cl)cc3C3(c4ccccc4)N=CC12O3 (configuration not stated) : F
14. NC(CN(O)N=O)C(=O)O (configuration not stated) : T
15. CC(=O)NS(=O)(=O)c1ccc(NC(=O)c2c3ccccc3nc3ccccc23)cc1 : F
16. CCOC(=O)N1C2C=C(C)C(ON2C(=O)c2ccccc2)C2C(C)C(=O)N21 (configuration not stated) : F
17. CC1CC(C)C2=NOS3=C2C1=NO3 (configuration not stated) : F
18. O=C(/C=C/c1ccc(Cl)cc1)c1ccccc(=O)c1O : F
19. Nc1nc(N)c2ncn(Cc3ccccc3CCl)c2n1 : F
20. Cc1cccc(C(C)(C)C)c1NC(=O)/C(Cc1nc2ccc([N+](=O)[O-])cc2nc1O)=N\NC(=O)C[N+](C)(C)C : F
21. O=C1OC(c2ccc(Cl)cc2)=N/C1=C\c1ccccc1 : F
22. COc1ccc(C2=NN(c3nsc4ccccc34)C(=O)CC2)cc1 : F

----------
Test system: HCT-116
Assay: NCI tumour cell line growth inhibition, 48 h
Activity calls are given as the source filed them. Cut-off read from the data, not from the text of the source: active = GI50 up to about 1.1 µM and inactive = higher.
Classes used: y for active, n for inactive

1) COC(=O)c1c(-c2cc(OC)c(OC)c(OC)c2)oc2ccccc2c1=O : n
2) COC(=O)c1ccc(Cc2cc(Cc3ccc(C(=O)OC)cc3)cc(Cc3ccc(C(=O)OC)cc3)c2)cc1 : n
3) CC1(C)OC(CCC#N)CN1C(=O)OCc1ccccc1 (stereo unspecified) : n
4) CC1(C)CCCCC1/C=C/C(CC(O)(C(F)(F)F)C(F)(F)F)=N\Nc1ccc([N+](=O)[O-])cc1[N+](=O)[O-] (stereo unspecified) : y
5) COc1cc(-c2[nH]ccc2Cl)oc1C1=C2N=C3C=C2C(C(C)C)C1CCCCCCCC3 (stereo unspecified) : y
6) CC(C)(C)c1ccc2c(c1)S(=O)(=O)Nc1ccc(Cl)cc1NS(=O)(=O)c1cc(C(C)(C)C)ccc1OCCOCCOCCO2 : n
7) Cc1ccc(NC(=O)CC2C(=O)Nc3ccccc3S2(=O)=O)cc1C (stereo unspecified) : n
8) CCOP(=Nc1ccc(N(C)C)cc1)(OCC)OCC : n
9) N/C(CSCCSC/C(N)=N/O)=N\O : n
10) C=CCc1cccc2cc(C(N)=O)c(=N)oc12 : n
11) CON(C)C(=O)C(Cc1ccccc1)NC(=O)OCc1ccccc1 (stereo unspecified) : n
12) O=[N+]([O-])c1ccc(Cl)c(C2SCc3nc4ccccc4n32)c1 (stereo unspecified) : n
13) Cc1cccc(C(C)(C)C)c1NC(=O)/C(Cc1nc2ccc([N+](=O)[O-])cc2nc1O)=N\NC(=O)C[N+](C)(C)C : n
14) CC(=O)OCCOCn1c2c(c(=O)[nH]c1=O)CCC2 : n
15) c1ccc(C2CC(N3CCOCC3)=Nc3ccccc3N2)cc1 (stereo unspecified) : n
16) CC1CC(NC2CCCCC2)=Nc2ccccc2N1Cc1ccccc1 (stereo unspecified) : n
17) Nc1ncn(C2C=C(CO)C(O)C2O)c(=O)n1 (stereo unspecified) : n
18) O=C1C(=C(C(=O)c2ccccc2)C(=O)c2ccccc2)OC(c2ccccc2)=C1C(=O)c1ccccc1 : n
19) CC(=O)Nc1ccc(/C=C/C(=O)c2sc(-c3nc(C)c(C(=O)/C=C/c4ccc(NC(C)=O)cc4)s3)nc2C)cc1 : n
20) C=CC1(O)CCCC=C1COCc1ccccc1 (stereo unspecified) : n
21) O=[As](O)(O)c1ccc(Cc2ccc([As](=O)(O)O)cc2)cc1 : y
22) COc1cc([C@H]2c3cc4c(cc3O[C@@]3(O)COC(=O)[C@@H]23)OCO4)cc(OC)c1OC : n
23) c1cc(CN2CCNCCNCCNCC2)cc(CN2CCNCCNCCNCC2)c1 : n
24) CCCCCC(C)(C)CCC(=O)OC1OC(COC2OC(COC3OC(CO)C(O)C(O)C3O)C(O)C(O)C2O)C(O)C(O)C1O (stereo unspecified) : n
25) CC(C(N)=O)N(C)C(=O)c1cc2ccccc2[n+](Cc2ccccc2)c1 (stereo unspecified) : n
26) CN1C(c2ccccc2)CC(O)CC1c1ccccc1 (stereo unspecified) : n
27) CC(=O)NS(=O)(=O)c1ccc(NC(=O)c2c3ccccc3nc3ccccc23)cc1 : n
28) CCN(CC)C(=S)N/N=C/c1ccccn1 : y
29) CSc1nc2c(N)ncnc2n1C : n
30) COC(=O)c1c(O)ccc2c1c1c(n2Cc2ccccc2)C(=O)c2ccccc2C1 : n
31) COCN1C(=O)[C@@H]2CCCN2C(=O)c2cc([N+](=O)[O-])ccc21 : n
32) CC(C)=CC(=O)Cc1nc2ccc([N+](=O)[O-])cc2[nH]c1=O : n
33) Cc1cc2c(cc1C)C(=O)C1(C2)Cc2cc3c(cc2C1=O)CCC3 (stereo unspecified) : n
34) CN(C)c1ccc(/C=N/C23CC4CC(CC(C4)C2)C3)cc1 : n
35) C=CC1=C(C)/C(=C/C2=NC(=C\c3[nH]c(CC4NC(=O)C(C)/C4=C\C)c(C)c3CCC(=O)O)/C(CC(=O)O)=C2C)NC1=O (stereo unspecified) : n
36) Cc1cc(=O)oc2cc(OCCCOc3ccc4c(C)cc(=O)oc4c3)ccc12 : n
